Data provenance is patent US10919896B2.

Study System: Cdc7/ASK (Homo sapiens)
Sequence (O00311 whole entry): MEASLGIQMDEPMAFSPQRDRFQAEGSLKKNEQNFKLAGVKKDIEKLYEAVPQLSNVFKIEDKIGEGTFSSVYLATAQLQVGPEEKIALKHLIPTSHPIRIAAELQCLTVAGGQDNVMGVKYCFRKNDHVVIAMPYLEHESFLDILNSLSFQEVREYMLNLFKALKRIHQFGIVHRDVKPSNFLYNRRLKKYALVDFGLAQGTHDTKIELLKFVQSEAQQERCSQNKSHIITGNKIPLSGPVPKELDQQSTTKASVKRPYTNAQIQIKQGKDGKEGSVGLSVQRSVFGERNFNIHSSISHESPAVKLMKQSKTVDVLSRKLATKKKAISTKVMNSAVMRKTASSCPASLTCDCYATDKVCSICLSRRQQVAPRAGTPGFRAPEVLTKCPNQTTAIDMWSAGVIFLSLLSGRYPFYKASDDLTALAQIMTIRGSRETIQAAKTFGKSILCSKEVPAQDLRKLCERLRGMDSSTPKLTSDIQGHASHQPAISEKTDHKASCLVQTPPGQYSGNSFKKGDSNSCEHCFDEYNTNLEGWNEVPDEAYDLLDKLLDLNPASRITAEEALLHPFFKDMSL
Sequence (Q9UBU7 whole entry partner): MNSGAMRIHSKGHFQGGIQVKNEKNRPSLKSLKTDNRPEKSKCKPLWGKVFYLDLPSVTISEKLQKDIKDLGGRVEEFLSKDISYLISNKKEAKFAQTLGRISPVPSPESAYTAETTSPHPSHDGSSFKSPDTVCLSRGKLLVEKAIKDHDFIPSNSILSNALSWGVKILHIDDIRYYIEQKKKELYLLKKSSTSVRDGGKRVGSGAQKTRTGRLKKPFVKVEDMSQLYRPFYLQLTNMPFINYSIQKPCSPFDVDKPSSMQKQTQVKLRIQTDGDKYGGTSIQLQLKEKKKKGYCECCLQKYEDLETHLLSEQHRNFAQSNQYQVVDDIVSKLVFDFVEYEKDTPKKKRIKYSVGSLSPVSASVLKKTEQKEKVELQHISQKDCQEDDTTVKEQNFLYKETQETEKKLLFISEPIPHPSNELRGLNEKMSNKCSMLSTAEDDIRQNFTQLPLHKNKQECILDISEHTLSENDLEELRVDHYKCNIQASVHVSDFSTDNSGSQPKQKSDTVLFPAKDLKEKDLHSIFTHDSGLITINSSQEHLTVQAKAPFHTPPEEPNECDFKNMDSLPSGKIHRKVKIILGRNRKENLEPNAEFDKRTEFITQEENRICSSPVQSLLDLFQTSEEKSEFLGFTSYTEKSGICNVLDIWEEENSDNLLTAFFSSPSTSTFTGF
Assay Summary: Cdc7 Biochemical Assay Method 1: 384 well ELISA, whole protein substrate MCM2, antibody against Phospho MCM2 (S53)
Parameters: purchased
Test Parameters: 2 μM ATP, read-out: Biochemical Method 1 (pIC50) (converted)
Experimental: This protocol describes a method for assaying Cdc7/ASK for activity. The assay is a 384 well ELISA assay, utilising a whole protein substrate (MCM2) and an antibody against Phospho MCM2 (S53). This site is thought to be specific to Cdc7/ASK phosphorylation and the assay has been validated using knockout mutants. […] Stop the reaction by adding 20 μL Stop Solution to all wells and record Absorbance on a Pherastar plate reader. […] Z' factors were determined for each plate tested and were all above 0.5. […]
Parameter Measured: IC50 (nM)

# example entries with known answers
- Compound: "CN1CCC(c2nc(-c3ccncc3)[nH]c(=O)c2Cl)CC1"
  Observed Measurement: 10.2
- Compound: "N#Cc1ccc(C(=O)N2CCC(c3nc(-c4ccncc4)[nH]c(=O)c3Cl)CC2)cc1"
  Observed Measurement: 1.41
- Compound: "O=C(c1csnn1)N1CCC(c2nc(-c3ccncc3)[nH]c(=O)c2Cl)CC1"
  Observed Measurement: 2.57

P = O=c1[nH]c(-c2ccncc2)nc(N2CCCC(C(F)(F)F)C2)c1Cl (stereo not shown) [Compound 176]
Q = O=c1[nH]c(-c2ccncc2)nc(N2CCC(CO)CC2)c1Cl
R = CC(C)C1CC(c2nc(-c3ccncc3)[nH]c(=O)c2Cl)CCO1 (stereo not shown)
S = CC(C)(C)C(=O)N1CCC(c2nc(-c3ccncc3)[nH]c(=O)c2Cl)CC1
Problem: Sort low-to-high on IC50, please. # format: label list in the order the request specifies
Solution: Q, P, S, R
(Q: 3.63 nM, P: 20.9 nM, S: 63.1 nM, R: 123 nM)

* * *

Study System: Cdc7/ASK (Homo sapiens)
Assay Summary: Cdc7 Biochemical Assay Method 1: 384 well ELISA, whole protein substrate MCM2, antibody against Phospho MCM2 (S53)
Parameters: purchased
Test Parameters: 2 μM ATP, read-out: Biochemical Method 1 (pIC50) (converted)
Parameter Measured: IC50 (nM)

# example entries with known answers
- Compound: "COc1cccc(C2CN(c3nc(-c4ccncc4)[nH]c(=O)c3Cl)CCN2)c1 (stereo not drawn) [Compound 179]"
  Study System: "Cdc7/ASK (Homo sapiens)"
  IC50 [nM]: 23.4
- Compound: "O=c1[nH]c(-c2ccncc2)nc(C2CCOC2)c1Cl (stereo not drawn) [Compound 12]"
  Study System: "Cdc7/ASK (Homo sapiens)"
  IC50 [nM]: 20

a = CC(C)Oc1ccc(C(=O)N2CCC(c3nc(-c4ccncc4)[nH]c(=O)c3Cl)CC2)cc1 [Compound 63]
b = O=c1[nH]c(-c2ccnc(F)c2)nc(C2(F)CCOCC2)c1Cl [Compound 18]
c = O=c1[nH]c(-c2ccncc2)nc(N2CCCC(C(F)(F)F)C2)c1Cl (stereo not drawn) [Compound 107]
d = O=c1[nH]c(-c2ccncc2)nc(C2CCCOC2)c1Cl (stereo not drawn) [Compound 16]
Problem: Sort low-to-high on IC50, please. # format: label list in the order the request specifies
Solution: b, a, c, d
(b: 0.794 nM, a: 3.24 nM, c: 7.08 nM, d: 12.9 nM)

A = O=c1[nH]c(-c2ccncc2)nc(C2(F)CCCNC2)c1Cl (stereo not drawn) [Compound 19]
B = O=C1CN(c2nc(-c3ccncc3)[nH]c(=O)c2Cl)CCN1 [Compound 33]
Problem: From the recorded data, which exceeds the other in IC50: A or B ? Identify your selection by its label.
Solution: B
